// reported pEC50 per item
# System: Vero
# protocol.notes: concentration required to inhibit Punta Toro virus-induced cytopathicity by 50% in Vero cells
# Format: functional, cell-based
# recorded.conditions: Chlorocebus sabaeus
pEC50: −log10 of the molar value.
assay.metric: pEC50

{"compound": "NC1=NC(CCCO)N(CCCO)c2[nH]cnc21 (stereo not given)", "assay.metric": "pEC50", "reported": "< 2.70"}
{"compound": "Nc1ncnc2c1ncn2C1O[C@H](C#CCl)[C@@H](O)[C@H]1O (stereo not given in full)", "assay.metric": "pEC50", "reported": "< 4.46"}
{"compound": "Nc1ncnc2c1ncn2C1O[C@H](C#CBr)[C@@H](O)[C@H]1O (stereo not given in full)", "assay.metric": "pEC50", "reported": "< 4.52"}
{"compound": "NC(=O)c1ncn([C@@H]2O[C@H](CO)[C@@H](O)[C@H]2O)n1", "assay.metric": "pEC50", "reported": 4.19}
{"compound": "Nc1ncnc2c1ncn2C1O[C@H](C#CI)[C@@H](O)[C@H]1O (stereo not given in full)", "assay.metric": "pEC50", "reported": "< 3.98"}

---

# Tested on: Vero
# protocol.notes: concentration required to inhibit reovirus-1 induced cytopathicity by 50% in Vero cells
# Assay type: functional, cell-based
# recorded.conditions: Chlorocebus sabaeus

{"compound": "NC1=NC(CCCO)N(CCCO)c2[nH]cnc21 (stereo unspecified)", "measurement.target": "Vero", "scale.unit": "µM", "EC50": 240}

---

# Test system: E6SM
# protocol.notes: concentration required to inhibit HSV-1/TK (B2006) or VMW1837-induced cytopathicity by 50% in E6SM cells
# Type: functional, cell-based
# recorded.conditions: Homo sapiens
pEC50: −log10 of the molar value.
Measured pEC50 of individual entries

{"compound": "Nc1ncnc2c1ncn2C1O[C@H](C#CI)[C@@H](O)[C@H]1O (some centres undefined)", "measurement.target": "E6SM", "pEC50": "< 5.00"}
{"compound": "Nc1ncnc2c1ncn2C1O[C@H](C#CBr)[C@@H](O)[C@H]1O (some centres undefined)", "measurement.target": "E6SM", "pEC50": "< 3.92"}
{"compound": "Nc1ncnc2c1ncn2C1O[C@H](C#CCl)[C@@H](O)[C@H]1O (some centres undefined)", "measurement.target": "E6SM", "pEC50": "< 3.85"}
{"compound": "NC(=O)c1ncn([C@@H]2O[C@H](CO)[C@@H](O)[C@H]2O)n1", "measurement.target": "E6SM", "pEC50": 3.89}

---

# System: E6SM
# protocol.notes: concentration required to inhibit VSV-induced cytopathicity by 50% in E6SM cells
# Assay type: functional, cell-based
# recorded.conditions: Homo sapiens
Each record here notes measured EC50.

{"molecule": "NC(=O)c1ncn([C@@H]2O[C@H](CO)[C@@H](O)[C@H]2O)n1 [RIBAVIRIN]", "EC50 [µM]": 192}
{"molecule": "Nc1ncnc2c1ncn2C1O[C@H](C#CCl)[C@@H](O)[C@H]1O (some centres undefined)", "EC50 [µM]": 70}
{"molecule": "Nc1ncnc2c1ncn2C1O[C@H](C#CBr)[C@@H](O)[C@H]1O (some centres undefined)", "EC50 [µM]": 6}
{"molecule": "Nc1ncnc2c1ncn2C1O[C@H](C#CI)[C@@H](O)[C@H]1O (some centres undefined)", "EC50 [µM]": 0.08}

---

Catalogue of MIC readings, one per entry.
# Test system: Vero
# protocol.notes: Minimum inhibitory concentration (MIC) required to elicit a microscopically visible alteration of cell morphology in Vero cells
# Format: functional
# recorded.conditions: Chlorocebus sabaeus
assay.metric: MIC

{"molecule": "Nc1ncnc2c1ncn2C1O[C@H](C#CCl)[C@@H](O)[C@H]1O (stereo not given in full)", "assay.metric": "MIC", "reported": "> 140 µM"}
{"molecule": "NC1=NC(CCCO)N(CCCO)c2[nH]cnc21 (stereo not given)", "assay.metric": "MIC", "reported": "> 1600 µM"}
{"molecule": "Nc1ncnc2c1ncn2C1O[C@H](C#CBr)[C@@H](O)[C@H]1O (stereo not given in full)", "assay.metric": "MIC", "reported": "> 120 µM"}
{"molecule": "Nc1ncnc2c1ncn2C1O[C@H](C#CI)[C@@H](O)[C@H]1O (stereo not given in full)", "assay.metric": "MIC", "reported": "> 180 µM"}
{"molecule": "NC(=O)c1ncn([C@@H]2O[C@H](CO)[C@@H](O)[C@H]2O)n1", "assay.metric": "MIC", "reported": "> 1600 µM"}

---

# System: Vero
# protocol.notes: concentration required to inhibit parainfluenza-3 virus-induced cytopathicity by 50% in Vero cells
# Type: functional, cell-based
# recorded.conditions: Chlorocebus sabaeus

{"compound": "NC1=NC(CCCO)N(CCCO)c2[nH]cnc21 (stereo not given)", "EC50": "1200 µM"}
{"compound": "NC(=O)c1ncn([C@@H]2O[C@H](CO)[C@@H](O)[C@H]2O)n1", "EC50": "64 µM"}
{"compound": "Nc1ncnc2c1ncn2C1O[C@H](C#CBr)[C@@H](O)[C@H]1O (stereo not given in full)", "EC50": "6 µM"}
{"compound": "Nc1ncnc2c1ncn2C1O[C@H](C#CI)[C@@H](O)[C@H]1O (stereo not given in full)", "EC50": "2.6 µM"}
{"compound": "Nc1ncnc2c1ncn2C1O[C@H](C#CCl)[C@@H](O)[C@H]1O (stereo not given in full)", "EC50": "> 35 µM"}

---

# System: HeLa
# protocol.notes: concentration required to inhibit Coxsackie virus B4-induced cytopathicity by 50% in HeLa cells
# Assay type: functional, cell-based
# recorded.conditions: Homo sapiens

{"molecule": "NC(=O)c1ncn([C@@H]2O[C@H](CO)[C@@H](O)[C@H]2O)n1", "measurement.target": "HeLa", "EC50": "320 µM"}
{"molecule": "Nc1ncnc2c1ncn2C1O[C@H](C#CBr)[C@@H](O)[C@H]1O (stereo not given in full)", "measurement.target": "HeLa", "EC50": "> 300 µM"}
{"molecule": "Nc1ncnc2c1ncn2C1O[C@H](C#CCl)[C@@H](O)[C@H]1O (stereo not given in full)", "measurement.target": "HeLa", "EC50": "> 140 µM"}
{"molecule": "Nc1ncnc2c1ncn2C1O[C@H](C#CI)[C@@H](O)[C@H]1O (stereo not given in full)", "measurement.target": "HeLa", "EC50": "> 260 µM"}
{"molecule": "NC1=NC(CCCO)N(CCCO)c2[nH]cnc21 (stereo not given)", "measurement.target": "HeLa", "EC50": "> 2000 µM"}

---

# measurement.target: Adenosylhomocysteinase (Homo sapiens)
# Sequence (P23526 whole entry): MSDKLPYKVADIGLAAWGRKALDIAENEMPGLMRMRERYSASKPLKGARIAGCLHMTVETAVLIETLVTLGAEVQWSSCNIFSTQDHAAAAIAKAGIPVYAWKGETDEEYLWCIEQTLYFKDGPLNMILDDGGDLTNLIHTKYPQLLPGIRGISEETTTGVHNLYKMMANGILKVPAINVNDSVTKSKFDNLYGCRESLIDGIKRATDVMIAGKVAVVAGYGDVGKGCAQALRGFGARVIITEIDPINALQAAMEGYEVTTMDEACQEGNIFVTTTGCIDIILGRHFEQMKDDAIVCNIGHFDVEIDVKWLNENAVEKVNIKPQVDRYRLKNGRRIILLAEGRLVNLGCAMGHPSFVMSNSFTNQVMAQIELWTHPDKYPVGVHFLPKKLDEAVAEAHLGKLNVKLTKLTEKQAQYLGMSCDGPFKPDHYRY
# protocol.notes: Kinetic constant calculated from the pseudo-first-order rate constant(k app) for S-adenosyl-homocysteine hydrolase inactivation
assay.metric: Ki (µM)

{"molecule": "Nc1ncnc2c1ncn2C1O[C@H](C#CI)[C@@H](O)[C@H]1O (stereo partly drawn)", "scale.unit": "µM", "reported": 1.1}
{"molecule": "Nc1ncnc2c1ncn2C1O[C@H](C#CBr)[C@@H](O)[C@H]1O (stereo partly drawn)", "scale.unit": "µM", "reported": 3.8}
{"molecule": "Nc1ncnc2c1ncn2C1O[C@H](C#CCl)[C@@H](O)[C@H]1O (stereo partly drawn)", "scale.unit": "µM", "reported": 1.7}

---

This listing pairs compounds with measured pEC50.
# System: E6SM
# protocol.notes: concentration required to inhibit HSV-1(KOS)-induced cytopathicity by 50% in E6SM cells
# Assay type: functional, cell-based
# recorded.conditions: Homo sapiens
pEC50: −log10 of the molar value.

{"compound": "Nc1ncnc2c1ncn2C1O[C@H](C#CI)[C@@H](O)[C@H]1O (some centres undefined)", "pEC50": "< 5.00"}
{"compound": "Nc1ncnc2c1ncn2C1O[C@H](C#CCl)[C@@H](O)[C@H]1O (some centres undefined)", "pEC50": "< 3.85"}
{"compound": "NC(=O)c1ncn([C@@H]2O[C@H](CO)[C@@H](O)[C@H]2O)n1", "pEC50": 3.02}
{"compound": "Nc1ncnc2c1ncn2C1O[C@H](C#CBr)[C@@H](O)[C@H]1O (some centres undefined)", "pEC50": "< 3.92"}
